# System: Plasmodium falciparum
# MEASUREMENT PROTOCOL: Antiplasmodial activity against chloroquine-sensitive Plasmodium falciparum NF54 erythrocytic stages incubated for 48 hrs by [3H]-hypoxanthine incorporation assay
# Type: functional, organism-based
Quick list: IC50 per entry.
Express your answer in µM, writing the number without its unit.

Example entries and their recorded answers appear below.
O=C(NCCc1ccccc1)c1cc(-c2ccc(CN3CCOCC3)cc2)nc2ccc(F)cc12    4.62
CN1CCN(Cc2ccc(-c3cc(NC(=O)CCN4CCCC4)c4cc(F)ccc4n3)cc2)CC1    0.002
CCC(=O)N1CCN(C(=O)c2cc(-c3ccc(CN4CCOCC4)cc3)nc3ccc(F)cc23)CC1    7.38
O=C(NC1CCNCC1)c1cc(-c2ccc(CN3CCOCC3)cc2)nc2ccc(F)cc12    0.99
Fc1ccc2nc(-c3ccc(CN4CCOCC4)cc3)cc(CNCCN3CCN(c4ccccc4)CC3)c2c1    0.02
CCC(=O)N1CCN(Cc2cc(-c3ccc(CN4CCOCC4)cc3)nc3ccc(F)cc23)CC1    10.1
CC(NC(=O)c1cc(-c2ccc(CN3CCOCC3)cc2)nc2ccc(F)cc12)c1ccccc1 (racemic)    5.6
CC(C)(C)OC(=O)N1CCN(CCNCc2cc(-c3ccc(CN4CCOCC4)cc3)nc3ccc(F)cc23)CC1    0.018
O=C(c1cc(-c2ccc(CN3CCOCC3)cc2)nc2ccc(F)cc12)N1CCCCC1    37.7
CC(C)(C)C(=O)N1CCN(CCNC(=O)c2cc(-c3ccc(CN4CCOCC4)cc3)nc3ccc(F)cc23)CC1    0.005

-- ask Recorded IC50 for `CCCN1CCN(Cc2cc(-c3ccc(CN4CCOCC4)cc3)nc3ccc(F)cc23)CC1` , please?
-- reply 1.94

-- ask Consider the molecule shown here: `CN1CCN(CCC(=O)Nc2cc(-c3ccc(CN4CCOCC4)cc3)nc3ccc(F)cc23)CC1` What is its recorded IC50?
-- reply 0.61

----------
// values below are reported Papp
# MEASUREMENT PROTOCOL: Effective permeability by PAMPA
# Format: ADME
# MEASUREMENT SETUP: read-out: Peff
Please format your answer as a value with the unit trailing.

// worked examples, Papp included
Fc1ccc2nc(-c3ccc(CN4CCOCC4)cc3)cc(CNCCN3CCN(c4ccccc4)CC3)c2c1    2.39 ×10⁻⁶ cm/s
Fc1ccc2nc(-c3ccc(CN4CCOCC4)cc3)cc(CNCCN3CCCC3)c2c1    4.55 ×10⁻⁶ cm/s

Next item in the queue.
-- ask Any idea what Papp was measured for `CC(C)(C)C(=O)N1CCN(CCNC(=O)c2cc(-c3ccc(CN4CCOCC4)cc3)nc3ccc(F)cc23)CC1` ?
-- reply 6.11 ×10⁻⁶ cm/s

----------
# Tested on: L6
# MEASUREMENT PROTOCOL: Cytotoxicity in rat L6 cells assessed as reduction in cell viability incubated for 72 hrs by alamar blue assay
# Format: cell-based
# MEASUREMENT SETUP: L6, 72 h
MEASURED QUANTITY: IC50
Please answer using a numeric value trailed by its unit.

-- ask Please give the measured IC50 for this compound: `COc1cc([C@@H]2c3cc4c(cc3[C@H](O)[C@H]3COC(=O)[C@H]23)OCO4)cc(OC)c1OC`
-- reply 0.012 µM

----------
# MEASUREMENT PROTOCOL: Selectivity index, ratio of IC50 for rat L6 cells to IC50 for chloroquine-sensitive Plasmodium falciparum NF54 erythrocytic stages
# Type: toxicity
# MEASUREMENT SETUP: read-out: Ratio IC50
Label fulfilled when selectivity ratio < 70; otherwise not fulfilled.

-- ask Given `CN1CCN(Cc2ccc(-c3cc(NC(=O)CCN4CCCC4)c4cc(F)ccc4n3)cc2)CC1` , is recorded selectivity ratio strictly lower than 70?
-- reply not fulfilled

----------
# MEASUREMENT PROTOCOL: Selectivity index, ratio of IC50 for rat L6 cells to IC50 for chloroquine and pyrimethamine resistant Plasmodium falciparum K1
# Format: toxicity
# MEASUREMENT SETUP: read-out: Ratio IC50
MEASURED QUANTITY: selectivity ratio
Answer as a number with no unit attached.

Known results for molecules:
O=C(CCN1CCCC1)Nc1cc(-c2ccc(CN3CCOCC3)cc2)nc2ccc(F)cc12    11200
O=C(CN1CCCC1)Nc1cc(-c2ccc(CN3CCOCC3)cc2)nc2ccc(F)cc12    69.3
CC(C)(C)OC(=O)N1CCN(CC(=O)Nc2cc(-c3ccc(CN4CCOCC4)cc3)nc3ccc(F)cc23)CC1    25.5
CC(C)(C)OC(=O)N1CCN(CCNCc2cc(-c3ccc(CN4CCOCC4)cc3)nc3ccc(F)cc23)CC1    484
Nc1cc(-c2ccc(CN3CCOCC3)cc2)nc2ccc(F)cc12    55
Fc1ccc2nc(-c3ccc(CN4CCOCC4)cc3)cc(CNCCN3CCN(c4ccccc4)CC3)c2c1    396

-- ask Quick check: selectivity ratio of `CC(C)(C)C(=O)N1CCN(CC(=O)Nc2cc(-c3ccc(CN4CCOCC4)cc3)nc3ccc(F)cc23)CC1` ?
-- reply 15.2

-- ask Fill in the blank: the reported selectivity ratio of `CC(C)(C)OC(=O)N1CCN(CCC(=O)Nc2cc(-c3ccc(CN4CCOCC4)cc3)nc3ccc(F)cc23)CC1` is ____.
-- reply 187

-- ask Recorded selectivity ratio for `C[C@@H]1CC[C@H]2[C@@H](C)C(=O)O[C@@H]3O[C@@]4(C)CC[C@@H]1[C@]32OO4` , please?
-- reply 70400

-- ask // selectivity ratio lookup, key: `Fc1ccc2nc(-c3ccc(CN4CCOCC4)cc3)cc(CNCCN3CCCC3)c2c1`
-- reply 48900

-- ask selectivity ratio lookup needed for `CC(C)(C)C(=O)N1CCN(CCC(=O)Nc2cc(-c3ccc(CN4CCOCC4)cc3)nc3ccc(F)cc23)CC1` , thanks.
-- reply 124

-- ask Fill in: selectivity ratio of `CN1CCN(Cc2ccc(-c3cc(NC(=O)CCN4CCCC4)c4cc(F)ccc4n3)cc2)CC1` is ___
-- reply 5370

----------
# MEASUREMENT PROTOCOL: Effective permeability by PAMPA
# Format: ADME
# MEASUREMENT SETUP: read-out: Peff
Threshold rule: Papp greater than or equal to 6 ×10⁻⁶ cm/s is t; below that, f.

O=C(CCN1CCCC1)Nc1cc(-c2ccc(CN3CCOCC3)cc2)nc2ccc(F)cc12    t
CC(C)(C)N1CCN(CCNC(=O)c2cc(-c3ccc(CN4CCOCC4)cc3)nc3ccc(F)cc23)CC1    f
CCCN1CCN(Cc2cc(-c3ccc(CN4CCOCC4)cc3)nc3ccc(F)cc23)CC1    t
O=C(c1cc(-c2ccc(CN3CCOCC3)cc2)nc2ccc(F)cc12)N1CCC(O)CC1    f
CCC(=O)N1CCN(C(=O)c2cc(-c3ccc(CN4CCOCC4)cc3)nc3ccc(F)cc23)CC1    f
CC(C)(C)OC(=O)N1CCN(CCNCc2cc(-c3ccc(CN4CCOCC4)cc3)nc3ccc(F)cc23)CC1    f
O=C(NCCc1ccccn1)c1cc(-c2ccc(CN3CCOCC3)cc2)nc2ccc(F)cc12    t
CCOC(=O)N1CCC(NC(=O)c2cc(-c3ccc(CN4CCOCC4)cc3)nc3ccc(F)cc23)CC1    f

Turning to the following molecule.
-- ask Please check the record `CCC(=O)N1CCN(Cc2cc(-c3ccc(CN4CCOCC4)cc3)nc3ccc(F)cc23)CC1` and state if its Papp is at or above 6 ×10⁻⁶ cm/s.
-- reply t

----------
# MEASUREMENT PROTOCOL: Selectivity index, ratio of IC50 for rat L6 cells to IC50 for chloroquine-sensitive Plasmodium falciparum NF54 erythrocytic stages
# Format: toxicity
# MEASUREMENT SETUP: read-out: Ratio IC50
Classify by measured selectivity ratio: label 1 if it is equal to or exceeds 10, label 0 if it is smaller.

# example entries with known answers
Fc1ccc2nc(-c3ccc(CN4CCOCC4)cc3)cc(CNCCN3CCCC3)c2c1    label 1
CC(C)(C)C(=O)N1CCN(CC(=O)Nc2cc(-c3ccc(CN4CCOCC4)cc3)nc3ccc(F)cc23)CC1    label 0
CC(C)(C)OC(=O)N1CCN(CC(=O)Nc2cc(-c3ccc(CN4CCOCC4)cc3)nc3ccc(F)cc23)CC1    label 1
O=C(NCCc1ccccc1)c1cc(-c2ccc(CN3CCOCC3)cc2)nc2ccc(F)cc12    label 0
CN1CCN(CCC(=O)Nc2cc(-c3ccc(CN4CCOCC4)cc3)nc3ccc(F)cc23)CC1    label 1
CC(C)(C)C(=O)N1CCN(CCC(=O)Nc2cc(-c3ccc(CN4CCOCC4)cc3)nc3ccc(F)cc23)CC1    label 1
CCCN1CCN(Cc2cc(-c3ccc(CN4CCOCC4)cc3)nc3ccc(F)cc23)CC1    label 0
O=C(NCC(F)(F)F)c1cc(-c2ccc(CN3CCOCC3)cc2)nc2ccc(F)cc12    label 1

Okay, now this compound:
-- ask Entry `O=C(c1cc(-c2ccc(CN3CCOCC3)cc2)nc2ccc(F)cc12)N1CCCCC1` : is its selectivity ratio no less than 10?
-- reply label 0
